assay: growth inhibitors of H69AR lung tumor, primary screen, human, duplicate replicates (AID 580); conditions: H69AR lung tumor cells viability, ATP luminescence, 72 h; at 10 µM; stronger effect = lower value;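 further: 100% = mean luminescence of untreated wells and 0% = no signal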
Cut-off 90% on viability: below means MET, at or above means NOT MET.

Study these solved cases before continuing.
molecule: Cc1ccc(CCNC(=O)CC2Oc3ccc(C)cc3NC2=O)cc1 (stereo not drawn)
class-label: NOT MET
--
molecule: CC(C)[C@H](NC(=O)OC(C)(C)C)c1nnc(SCc2cccc(F)c2)o1
class-label: NOT MET
--
molecule: CCSc1nnc2c(n1)OC=Nc1ccc(Br)cc1-2
class-label: NOT MET

Data request: Lab note: confirm whether the reported viability for this molecule is below 90%, equality not counting. molecule: C=CCn1c(N)c(C(=O)NCCC2=CCCCC2)sc1=S
Data returned: MET

Data request: For CCn1c(=O)c(C(=O)NCc2ccc(OC)cc2)c(O)c2ccccc21 then?
Data returned: MET

Data request: For COc1cccc(C2C(C#N)=C(N)OC3=C2C(=O)CCC3)c1OC(=O)c1ccco1 (stereo not drawn) then?
Data returned: NOT MET

Data request: For Nn1c(SCC(=O)Nc2ccc3c(c2)OCO3)nnc1C1CC1 then?
Data returned: NOT MET

Data request: For COc1ccc2nc(NC(=O)C3CCCN(S(=O)(=O)c4cccc5nsnc45)C3)sc2c1 (stereo not drawn) then?
Data returned: MET

Data request: For COCn1c(COc2ccccc2)nc2ccccc21 then?
Data returned: MET

Data request: For CCN(C#N)c1nc(NC(C)C)nc(NC(C)C)n1 then?
Data returned: NOT MET

Data request: For COc1ccc(/C(O)=C2/C(=O)C(=O)N(CCCN(C)C)C2c2ccco2)cc1Cl (stereo not drawn) then?
Data returned: NOT MET

Data request: For COc1ccc(OCc2nc(N)nc(Nc3cccc(C)c3C)n2)cc1 then?
Data returned: NOT MET

---

assay: reversal of MRP1-mediated doxorubicin resistance, pilot screen, H69AR cells, doxorubicin co-treatment (AID 601); settings: H69AR cells, CellTiter-Glo, 72 h; compound alone cytotoxicity; at 10 µM
For each record, write down the corresponding viability.
Give bare numbers, in %.

molecule: COc1cccc(N2CCN(Cc3cccnc3)CC2)c1
assay-value: 87.8
//
molecule: O=C(NCc1cccnc1)c1ccc2c(c1)OCO2
assay-value: 89.7
//
molecule: C=C(C)Cn1c(SCC)nc2ccccc2c1=O
assay-value: 85.6
//
molecule: COc1ccc2[nH]c(=O)c(CN(CC3CCCO3)C(=O)Nc3ccc(F)cc3)cc2c1 (configuration not stated)
assay-value: 39.4

Parameter requested: viability. Apply to each item below.
1. COc1ccc(S(=O)(=O)NCC(=O)N(CC(=O)NCC2CCCO2)c2ccccc2C)cc1 (configuration not stated)
2. Cc1cc2nc(C3CCN(CC4COc5ccccc5O4)CC3)[nH]c2cc1C (configuration not stated)
3. CN1C(=S)SC(C)(NO)C1(C)C (configuration not stated)
4. CC(=O)Nc1ccc(S(=O)(=O)NCC(C)NS(=O)(=O)c2ccc(NC(C)=O)cc2)cc1 (configuration not stated)
5. COc1cccc(N2CCN(C(=O)C3C4C=CC5(CN(Cc6ccccc6Cl)C(=O)C35)O4)CC2)c1 (configuration not stated)
6. Cc1cc(C)c2[nH]c(=O)c(C(c3nnnn3Cc3ccc4c(c3)OCO4)N3CCC(C)CC3)cc2c1 (configuration not stated)

Data returned:
[83.4, 77.8, 104, 98.6, 100, 86.7]

Parameter requested: viability. Apply to each item below.
1. C=CCSc1nc2c(c(=O)[nH]c(=O)n2C)n1C(C)C
2. CC(=O)c1cccc(S(=O)(=O)NCC(c2ccco2)N2CCCCC2)c1 (configuration not stated)

Data returned:
1: 106; 2: 99.4
